# TEST_SYSTEM: AKT1 WT (Homo sapiens (Human), UniProt P31749)
# Sequence (P31749 whole entry): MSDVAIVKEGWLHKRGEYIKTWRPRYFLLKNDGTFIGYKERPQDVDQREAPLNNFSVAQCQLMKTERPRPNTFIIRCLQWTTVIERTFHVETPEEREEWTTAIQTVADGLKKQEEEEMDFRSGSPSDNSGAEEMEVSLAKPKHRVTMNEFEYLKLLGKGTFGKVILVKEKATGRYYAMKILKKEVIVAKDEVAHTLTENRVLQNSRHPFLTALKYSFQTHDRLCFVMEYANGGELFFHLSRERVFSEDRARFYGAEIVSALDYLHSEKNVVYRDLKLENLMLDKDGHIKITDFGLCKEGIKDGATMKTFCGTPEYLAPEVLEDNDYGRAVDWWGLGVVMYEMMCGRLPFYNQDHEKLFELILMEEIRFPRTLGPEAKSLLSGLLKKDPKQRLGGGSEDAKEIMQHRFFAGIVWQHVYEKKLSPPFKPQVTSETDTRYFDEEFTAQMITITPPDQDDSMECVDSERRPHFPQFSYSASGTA
# PROTOCOL_DESCRIPTION: Live cell target engagement (NanoBRET) in HEK293 cells
# Format: cell-based
# PROTOCOL_CONDITIONS: HEK293, 2 hours at 37° C.
EXPERIMENTAL_ENDPOINT: IC50

1. Nc1ncccc1-c1nc2ccc(-c3ccccc3)nc2n1-c1ccc(CN2CCC(c3ccc(O)c(C=O)c3)CC2)cc1	< 100 nM
2. C[C@H](NCCc1ccc(O)c(C=O)c1)c1ccc(-n2c(-c3cccnc3N)nc3ccc(-c4ccccc4)nc32)cc1	100 to 500 nM
3. Nc1ncccc1-c1nc2ccc(-c3ccccc3)nc2n1-c1ccc(CNc2cc(-c3ccc(O)c(C=O)c3)ccn2)cc1	100 to 500 nM
4. CC(=O)Nc1cc(CCNCc2ccc(-n3c(-c4cccnc4N)nc4ccc(-c5ccccc5)nc43)cc2)ccc1C=O	< 100 nM
5. CN(Cc1ccc(-n2c(-c3cccnc3N)nc3ccc(-c4ccccc4)nc32)cc1)C(=O)Cc1ccc(C=O)c(O)c1	< 100 nM
6. Nc1ncccc1-c1nc2ccc(-c3ccccc3)nc2n1-c1ccc(CCNCc2ccc(C=O)c(O)c2F)cc1	< 100 nM

Enquiry: Which IC50 is listed for Nc1ncccc1-c1nc2ccc(-n3cccn3)nc2n1-c1ccc(C2(NC(=O)Cc3ccc(C=O)c(O)c3F)CC2)cc1 ?
Return: < 100 nM

Enquiry: Which IC50 is listed for Nc1ncccc1-c1nc2ccc(-c3ccccc3)nc2n1-c1ccc(CNC(=O)c2cc(Cl)c(O)c(C=O)c2)cc1 ?
Return: < 100 nM

Enquiry: Which IC50 is listed for Nc1ncccc1-c1nc2ccc(-c3ccccc3)nc2n1-c1ccc(CNCCCc2ccc(C=O)c(O)c2)cc1 ?
Return: < 100 nM

Enquiry: Which IC50 is listed for Nc1ncccc1-c1nc2ccc(-c3ccccc3)nc2n1-c1ccc(CNC(=O)c2cc(C=O)c(O)cc2F)cc1 ?
Return: < 100 nM

Enquiry: Which IC50 is listed for CC(=O)Nc1cccc(-c2ccc3nc(-c4cccnc4N)n(-c4ccc(CNCCc5ccc(C=O)c(O)c5)cc4)c3n2)c1 ?
Return: < 100 nM

====

# TEST_SYSTEM: AKT1 E17K (Homo sapiens (Human), UniProt P31749, E17K)
# Sequence (P31749 whole entry E17K): as the sequence (P31749 whole entry) above, with E17K counted along it
# PROTOCOL_DESCRIPTION: Live cell target engagement (NanoBRET) in HEK293 cells
# Type: cell-based
EXPERIMENTAL_ENDPOINT: AKT1 E17K IC50: Selectivity vs AKT1 WT

1. Nc1ncccc1-c1nc2ccc(NC3CC3)nc2n1-c1ccc(CNC(=O)Cc2ccc(C=O)c(O)c2)cc1 [Compound 25]	4.3
2. Nc1ncccc1-c1nc2ccc(-c3ccccc3)nc2n1-c1ccc(C(=O)NCCc2ccc(C=O)c(O)c2)cc1 [Compound 131]	1.6
3. Nc1ncccc1-c1nc2ccc(-n3cccn3)nc2n1-c1ccc(C2(NC(=O)Cc3ccc(C=O)c(O)c3F)CC2)cc1 [Compound 141]	1.2

[P] Nc1ncccc1-c1nc2cccnc2n1-c1ccc(CNCCc2ccc(C=O)c(C(F)F)c2)cc1 [Compound 80]
[Q] Nc1ncccc1-c1nc2ccc(-c3ccccc3)nc2n1-c1ccc(CNC(=O)c2cc(C=O)c(O)cc2F)cc1 [Example 4]
Enquiry: Could you tell me which of P and Q has the lower AKT1 E17K IC50: Selectivity vs AKT1 WT reading? Indicate your choice by writing its label.
Return: P
(P: 0.47, Q: 2)
